B1: SNAP91 (parent)
chain: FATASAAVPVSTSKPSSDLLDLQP

Variants of: B1
Test: protein stability index of a GFP-peptide fusion (GPS, HEK-293T) (PSI 1-6); higher = more stable;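 note: lentivirally expressed fusions sorted by FACS into six bins by GFP to DsRed ratio, PSI derived from sequencing read proportions per bin multiplied by bin number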
Conditions: c terminus: a fixed tail appended
Reported protein stability index values are given for each entry in this list.

SEQUENCE_CHANGE | protein stability index
A4D | 4.72
K14R | 3.87
Q23Y | 2.8
S11K | 3.84
S5T | 3.73
S11I | 3.15
L20P | 4.36
L22A | 4.49
A2L | 3.75
P9S | 3.26
L19A | 4.02
